Please respond with reported AC50 for every item in the list.

Query the reported AC50 for Endothelin receptor type B (Homo sapiens, UniProt P24530); item: "O=C(Nc1nc(-c2cc(Cl)cs2)c(N2CCN(C3CCCCC3)CC2)s1)c1cnc(N2CCC(C(=O)O)CC2)c(Cl)c1"
> 10 µM

GET /values?readout=AC50&system=Endothelin receptor type B (Homo sapiens, UniProt P24530)&item= "O=C1CN=C(c2ccccc2)c2cc(Cl)ccc2N1"
> 30 µM

Recorded AC50 for "CC(=O)OCC[N+](C)(C)C" with Endothelin receptor type B (Homo sapiens, UniProt P24530), please?
> 30 µM

Look up AC50 with Endothelin receptor type B (Homo sapiens, UniProt P24530) for this compound: "NCCCC(O)(P(=O)(O)O)P(=O)(O)O"
Sequence (P24530 whole entry): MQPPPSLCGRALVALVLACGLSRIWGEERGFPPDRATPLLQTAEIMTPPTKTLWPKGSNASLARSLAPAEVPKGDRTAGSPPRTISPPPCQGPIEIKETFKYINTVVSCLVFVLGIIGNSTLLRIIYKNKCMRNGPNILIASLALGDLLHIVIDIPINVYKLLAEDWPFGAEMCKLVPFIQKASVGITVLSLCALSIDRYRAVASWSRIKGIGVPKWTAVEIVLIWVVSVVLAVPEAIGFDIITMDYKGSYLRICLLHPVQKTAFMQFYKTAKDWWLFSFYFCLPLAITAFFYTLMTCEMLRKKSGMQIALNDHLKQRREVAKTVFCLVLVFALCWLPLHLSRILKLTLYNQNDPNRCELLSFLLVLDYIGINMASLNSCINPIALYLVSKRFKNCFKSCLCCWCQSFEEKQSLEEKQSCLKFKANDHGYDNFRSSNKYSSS
> 30 µM

Request: AC50, test system Endothelin receptor type B (Homo sapiens, UniProt P24530), entry "COC(=O)[C@H](c1ccccc1Cl)N1CCc2sccc2C1"
> 30 µM

---

Field: AC50. Provide a value for each of the molecules that follow.
Molecular target: Neuropeptide Y receptor type 1 (Homo sapiens, UniProt P25929); note: assay procedure not described here
Sequence (P25929 whole entry): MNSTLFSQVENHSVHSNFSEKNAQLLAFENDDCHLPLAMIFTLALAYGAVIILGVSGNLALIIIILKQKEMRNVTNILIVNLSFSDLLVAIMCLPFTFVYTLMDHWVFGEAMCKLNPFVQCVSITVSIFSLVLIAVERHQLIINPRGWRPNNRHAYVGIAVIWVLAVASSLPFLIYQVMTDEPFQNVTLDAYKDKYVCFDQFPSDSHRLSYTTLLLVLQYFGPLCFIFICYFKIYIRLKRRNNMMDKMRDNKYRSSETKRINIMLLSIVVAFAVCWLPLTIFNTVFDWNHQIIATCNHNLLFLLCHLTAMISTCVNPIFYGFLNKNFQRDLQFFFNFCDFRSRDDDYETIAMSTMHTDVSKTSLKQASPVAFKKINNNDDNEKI

Any idea what its AC50 is? The molecule is Cc1cc(CC(=O)O)n(C)c1C(=O)c1ccc(Cl)cc1 [ZOMEPIRAC]
> 30 µM

Which AC50 value belongs to "CC#CCn1c(N2CCC[C@@H](N)C2)nc2c1c(=O)n(Cc1nc(C)c3ccccc3n1)c(=O)n2C" ?
> 30 µM

Quick one: AC50 for "CNCC[C@H](Oc1cccc2ccccc12)c1cccs1" ?
> 30 µM

Returns the measured AC50 for the input molecule. Input: C=CC(N)CCC(=O)O (centres undefined)
> 10 µM

What value of AC50 has been recorded for this entry: CCCNC(C)C(=O)Nc1ccccc1C (centres undefined)
> 30 µM

Quick one: AC50 for CCCC(C)(COC(N)=O)COC(=O)NC(C)C (centres undefined) ?
> 30 µM

Param item = "CC[C@@H](CO)NC(=O)[C@@H]1C=C2c3cccc4[nH]cc(c34)C[C@H]2N(C)C1" ; retrieve measured AC50.
> 30 µM

Could you tell me which AC50 is on file for CC(=O)OCC(=O)[C@@]1(O)CC[C@H]2[C@@H]3CCC4=CC(=O)CC[C@]4(C)C3=CC[C@@]21C [ANECORTAVE ACETATE] ?
> 10 µM

Given "Clc1cccc(Cl)c1N=C1NCCN1" , state its recorded AC50.
> 30 µM

---

target: Bile salt export pump (Homo sapiens); assay type: functional; note: assay procedure not described here
Sequence (O95342 whole entry): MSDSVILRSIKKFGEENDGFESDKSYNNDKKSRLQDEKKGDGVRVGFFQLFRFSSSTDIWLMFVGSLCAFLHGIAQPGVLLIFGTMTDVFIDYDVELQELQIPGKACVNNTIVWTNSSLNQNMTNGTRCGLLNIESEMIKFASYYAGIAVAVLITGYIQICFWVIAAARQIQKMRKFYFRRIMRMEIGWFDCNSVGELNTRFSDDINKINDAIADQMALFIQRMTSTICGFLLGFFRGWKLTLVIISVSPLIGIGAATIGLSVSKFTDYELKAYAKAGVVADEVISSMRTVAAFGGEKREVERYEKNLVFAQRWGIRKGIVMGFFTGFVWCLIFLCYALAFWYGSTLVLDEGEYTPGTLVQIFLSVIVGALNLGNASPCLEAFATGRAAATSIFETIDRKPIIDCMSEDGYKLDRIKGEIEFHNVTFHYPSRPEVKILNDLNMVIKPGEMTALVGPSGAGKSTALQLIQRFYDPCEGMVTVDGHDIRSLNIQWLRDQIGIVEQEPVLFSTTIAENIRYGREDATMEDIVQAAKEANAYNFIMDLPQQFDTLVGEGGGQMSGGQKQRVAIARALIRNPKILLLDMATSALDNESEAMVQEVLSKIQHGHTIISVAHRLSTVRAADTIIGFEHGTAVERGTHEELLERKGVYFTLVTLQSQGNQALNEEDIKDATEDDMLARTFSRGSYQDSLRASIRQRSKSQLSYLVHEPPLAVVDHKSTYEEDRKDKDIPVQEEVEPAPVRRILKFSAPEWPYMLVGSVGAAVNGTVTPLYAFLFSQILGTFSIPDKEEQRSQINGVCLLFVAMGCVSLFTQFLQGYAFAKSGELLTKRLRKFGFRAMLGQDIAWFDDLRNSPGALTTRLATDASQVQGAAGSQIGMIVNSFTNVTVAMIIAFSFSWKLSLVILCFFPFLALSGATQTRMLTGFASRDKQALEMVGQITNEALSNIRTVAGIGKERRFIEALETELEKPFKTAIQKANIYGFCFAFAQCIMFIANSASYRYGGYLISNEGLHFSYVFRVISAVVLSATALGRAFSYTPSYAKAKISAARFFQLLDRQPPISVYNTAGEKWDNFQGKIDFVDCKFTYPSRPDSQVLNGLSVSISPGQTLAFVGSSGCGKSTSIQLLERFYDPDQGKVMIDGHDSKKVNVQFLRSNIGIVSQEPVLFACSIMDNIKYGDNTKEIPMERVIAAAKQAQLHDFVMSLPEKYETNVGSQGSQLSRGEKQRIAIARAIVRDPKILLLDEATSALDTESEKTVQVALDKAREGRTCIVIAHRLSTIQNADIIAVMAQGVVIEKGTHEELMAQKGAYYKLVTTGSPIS
Task for the reader: assign each of the following molecules its reported AC50.

Consider the molecule shown here: CN1C[C@H](C(=O)N[C@]2(C)O[C@@]3(O)[C@@H]4CCCN4C(=O)[C@H](Cc4ccccc4)N3C2=O)C[C@@H]2c3cccc4[nH]cc(c34)C[C@H]21 [DIHYDROERGOTAMINE] What is its recorded AC50?
28 µM

What measured AC50 goes with CC(=O)S[C@@H]1CC2=CC(=O)CC[C@]2(C)[C@H]2CC[C@@]3(C)[C@@H](CC[C@@]34CCC(=O)O4)[C@H]12 [SPIRONOLACTONE] ?
26 µM

Can you look up the measured AC50 of NC(=O)c1ncn([C@@H]2O[C@H](CO)[C@@H](O)[C@H]2O)n1 [RIBAVIRIN] for me?
> 300 µM

Request the reported AC50 associated with COc1ccc(Cc2nccc3cc(OC)c(OC)cc23)cc1OC [PAPAVERINE]
46 µM
